# System: anesthetized dog
# method-summary: Effect on electrocardiogram of anesthetized dog
# Format: in vivo
# particulars: Individual 1 (male), 0.6 mg/kg/10 min i.v., 30 min after start of administration
measured-endpoint: QT interval (ms)
The reply should contain only the number, in ms.

// QT interval value for COc1cc(CN[C@@H](C)[C@H](O)c2ccc(O)c(NS(C)(=O)=O)c2)cc(OC)c1 [Example 1] : 213

* * *

# System: anesthetized dog
# method-summary: Effect on electrocardiogram of anesthetized dog
# Format: in vivo
# particulars: Individual 1 (male), 6 mg/kg/10 min i.v., 5 min after start of administration; Fridericia
measured-endpoint: QTc (ms)
The reply should contain only the number, in ms.

// QTc value for `COc1cc(CN[C@@H](C)[C@H](O)c2ccc(O)c(NS(C)(=O)=O)c2)cc(OC)c1` : 292

* * *

# System: anesthetized dog
# method-summary: Effect on electrocardiogram of anesthetized dog
# Type: in vivo
# particulars: Individual 2 (female), 6 mg/kg/10 min i.v., 15 min after start of administration; Fridericia
measured-endpoint: QTc (ms)
The reply should contain only the number, in ms.

// QTc value for `COc1cc(CN[C@@H](C)[C@H](O)c2ccc(O)c(NS(C)(=O)=O)c2)cc(OC)c1` : 292

* * *

# Test system: anesthetized dog
# method-summary: Effect on electrocardiogram of anesthetized dog
# Assay type: in vivo
# particulars: Individual 1 (male), 6 mg/kg/10 min i.v., 45 min after start of administration
measured-endpoint: QT interval (ms)
The reply should contain only the number, in ms.

With anesthetized dog as the test system, COc1cc(CN[C@@H](C)[C@H](O)c2ccc(O)c(NS(C)(=O)=O)c2)cc(OC)c1 [Example 1] showed QT interval of 235

* * *

# Test system: anesthetized dog
# method-summary: Effect on electrocardiogram of anesthetized dog
# Assay type: in vivo
# particulars: Individual 2 (female), 0.6 mg/kg/10 min i.v., 45 min after start of administration
measured-endpoint: QT interval (ms)
The reply should contain only the number, in ms.

// QT interval value for `COc1cc(CN[C@@H](C)[C@H](O)c2ccc(O)c(NS(C)(=O)=O)c2)cc(OC)c1` : 211

* * *

# System: anesthetized dog
# method-summary: Effect on electrocardiogram of anesthetized dog
# Assay type: in vivo
# particulars: Individual 1 (male), 2 mg/kg/10 min i.v., 5 min after start of administration; Fridericia
measured-endpoint: QTc (ms)
The reply should contain only the number, in ms.

// QTc value for `COc1cc(CN[C@@H](C)[C@H](O)c2ccc(O)c(NS(C)(=O)=O)c2)cc(OC)c1` : 283

* * *

# Test system: anesthetized dog
# method-summary: Effect on electrocardiogram of anesthetized dog
# Type: in vivo
# particulars: Individual 2 (female), 2 mg/kg/10 min i.v., 60 min after start of administration; Fridericia
measured-endpoint: QTc

// QTc value for COc1cc(CN[C@@H](C)[C@H](O)c2ccc(O)c(NS(C)(=O)=O)c2)cc(OC)c1 [Example 1] : 299 ms

* * *

# Test system: anesthetized dog
# method-summary: Effect on electrocardiogram of anesthetized dog
# Assay type: in vivo
# particulars: Individual 1 (male), 6 mg/kg/10 min i.v., 15 min after start of administration
measured-endpoint: QT interval
Respond with a number, then the unit of measure.

// QT interval value for `COc1cc(CN[C@@H](C)[C@H](O)c2ccc(O)c(NS(C)(=O)=O)c2)cc(OC)c1` : 210 ms

* * *

# Test system: anesthetized dog
# method-summary: Effect on electrocardiogram of anesthetized dog
# Type: in vivo
# particulars: Individual 2 (female), 0.6 mg/kg/10 min i.v., 15 min after start of administration; Fridericia
measured-endpoint: QTc (ms)
The reply should contain only the number, in ms.

// QTc value for COc1cc(CN[C@@H](C)[C@H](O)c2ccc(O)c(NS(C)(=O)=O)c2)cc(OC)c1 [Example 1] : 296

* * *

# System: anesthetized dog
# method-summary: Effect on electrocardiogram of anesthetized dog
# Format: in vivo
# particulars: Individual 2 (female), 6 mg/kg/10 min i.v., 5 min after start of administration; Fridericia
measured-endpoint: QTc (ms)
The reply should contain only the number, in ms.

// QTc value for `COc1cc(CN[C@@H](C)[C@H](O)c2ccc(O)c(NS(C)(=O)=O)c2)cc(OC)c1` : 293

* * *

# Tested on: anesthetized dog
# method-summary: Effect on electrocardiogram of anesthetized dog
# Format: in vivo
# particulars: Individual 2 (female), 2 mg/kg/10 min i.v., 45 min after start of administration; Fridericia
measured-endpoint: QTc

With anesthetized dog as the test system, `COc1cc(CN[C@@H](C)[C@H](O)c2ccc(O)c(NS(C)(=O)=O)c2)cc(OC)c1` showed QTc of 298 ms

* * *

# Test system: anesthetized dog
# method-summary: Effect on electrocardiogram of anesthetized dog
# Type: in vivo
# particulars: Individual 1 (male), 2 mg/kg/10 min i.v., 45 min after start of administration; Fridericia
measured-endpoint: QTc (ms)
The reply should contain only the number, in ms.

// QTc value for COc1cc(CN[C@@H](C)[C@H](O)c2ccc(O)c(NS(C)(=O)=O)c2)cc(OC)c1 [Example 1] : 299

* * *

# System: anesthetized dog
# method-summary: Effect on electrocardiogram of anesthetized dog
# Assay type: in vivo
# particulars: Individual 1 (male), 2 mg/kg/10 min i.v., 45 min after start of administration
measured-endpoint: QT interval (ms)
The reply should contain only the number, in ms.

With anesthetized dog as the test system, `COc1cc(CN[C@@H](C)[C@H](O)c2ccc(O)c(NS(C)(=O)=O)c2)cc(OC)c1` showed QT interval of 221

* * *

# Tested on: anesthetized dog
# method-summary: Effect on electrocardiogram of anesthetized dog
# Type: in vivo
# particulars: Individual 1 (male), 6 mg/kg/10 min i.v., 15 min after start of administration; Fridericia
measured-endpoint: QTc (ms)
The reply should contain only the number, in ms.

// QTc value for `COc1cc(CN[C@@H](C)[C@H](O)c2ccc(O)c(NS(C)(=O)=O)c2)cc(OC)c1` : 291

* * *

# System: anesthetized dog
# method-summary: Effect on electrocardiogram of anesthetized dog
# Type: in vivo
# particulars: Individual 2 (female), 2 mg/kg/10 min i.v., 30 min after start of administration; Fridericia
measured-endpoint: QTc (ms)
The reply should contain only the number, in ms.

// QTc value for `COc1cc(CN[C@@H](C)[C@H](O)c2ccc(O)c(NS(C)(=O)=O)c2)cc(OC)c1` : 303

* * *

# System: anesthetized dog
# method-summary: Effect on electrocardiogram of anesthetized dog
# Assay type: in vivo
# particulars: Individual 2 (female), 2 mg/kg/10 min i.v., 15 min after start of administration
measured-endpoint: QT interval

With anesthetized dog as the test system, `COc1cc(CN[C@@H](C)[C@H](O)c2ccc(O)c(NS(C)(=O)=O)c2)cc(OC)c1` showed QT interval of 210 ms

* * *

# Tested on: anesthetized dog
# method-summary: Effect on electrocardiogram of anesthetized dog
# Type: in vivo
# particulars: Individual 1 (male), 0.6 mg/kg/10 min i.v., 15 min after start of administration
measured-endpoint: QT interval (ms)
The reply should contain only the number, in ms.

// QT interval value for `COc1cc(CN[C@@H](C)[C@H](O)c2ccc(O)c(NS(C)(=O)=O)c2)cc(OC)c1` : 205

* * *

# System: anesthetized dog
# method-summary: Effect on electrocardiogram of anesthetized dog
# Format: in vivo
# particulars: Individual 2 (female), 6 mg/kg/10 min i.v., 0 min (immediately before start of administration)
measured-endpoint: QT interval (ms)
The reply should contain only the number, in ms.

// QT interval value for `COc1cc(CN[C@@H](C)[C@H](O)c2ccc(O)c(NS(C)(=O)=O)c2)cc(OC)c1` : 220

* * *

# Test system: anesthetized dog
# method-summary: Effect on electrocardiogram of anesthetized dog
# Assay type: in vivo
# particulars: Individual 2 (female), 0.6 mg/kg/10 min i.v., 15 min after start of administration
measured-endpoint: QT interval
Respond with a number, then the unit of measure.

With anesthetized dog as the test system, COc1cc(CN[C@@H](C)[C@H](O)c2ccc(O)c(NS(C)(=O)=O)c2)cc(OC)c1 [Example 1] showed QT interval of 223 ms

* * *

# System: anesthetized dog
# method-summary: Effect on electrocardiogram of anesthetized dog
# Assay type: in vivo
# particulars: Individual 2 (female), 2 mg/kg/10 min i.v., 60 min after start of administration
measured-endpoint: QT interval (ms)
The reply should contain only the number, in ms.

// QT interval value for COc1cc(CN[C@@H](C)[C@H](O)c2ccc(O)c(NS(C)(=O)=O)c2)cc(OC)c1 [Example 1] : 221

* * *

# System: anesthetized dog
# method-summary: Effect on electrocardiogram of anesthetized dog
# Format: in vivo
# particulars: Individual 2 (female), 2 mg/kg/10 min i.v., 30 min after start of administration
measured-endpoint: QT interval
Respond with a number, then the unit of measure.

// QT interval value for `COc1cc(CN[C@@H](C)[C@H](O)c2ccc(O)c(NS(C)(=O)=O)c2)cc(OC)c1` : 225 ms
